FYI, the data here is from patent US8748462B2.

In this section, each of the molecules is paired with its reported EC50.
Biological target: human GPR40 (Homo sapiens, UniProt O14842)
Construct: expressed in transfected cells; host or cells: CHO cells stably transfected with GPR40 and Aequorin
Sequence (O14842 whole entry): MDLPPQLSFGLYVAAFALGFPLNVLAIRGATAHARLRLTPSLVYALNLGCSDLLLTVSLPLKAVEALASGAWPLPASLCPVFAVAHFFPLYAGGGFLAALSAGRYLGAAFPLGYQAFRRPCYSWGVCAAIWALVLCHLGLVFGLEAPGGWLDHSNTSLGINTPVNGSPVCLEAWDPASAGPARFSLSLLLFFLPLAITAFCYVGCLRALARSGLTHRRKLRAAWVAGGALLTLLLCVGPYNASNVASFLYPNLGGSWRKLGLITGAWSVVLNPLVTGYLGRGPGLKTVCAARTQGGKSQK
Test: Inositol phosphate accumulation assay
Format: cell-based
Conditions: A9 cell line stably transfected with GPR40; 1 hour at 37° C.; read-out: IP3 EC50

Per the reported human GPR40 (Homo sapiens, UniProt O14842) data, COc1ccc(F)c(-c2ccc(COc3ccc4c(c3)[C@]3(CC4)CC[C@@H]3C(=O)O)cc2C2=CCCC2(C)C)c1 (single isomer, unassigned) has EC50 of 10 to 100 nM

Case COc1cc(-c2ccc(COc3ccc4c(c3F)[C@]3(CC4)C[C@H]3C(=O)O)cc2[C@@H]2CCCC2(C)C)c(F)cn1 (single isomer, unassigned) , human GPR40 (Homo sapiens, UniProt O14842), EC50 recorded as < 10 nM

Known value: human GPR40 (Homo sapiens, UniProt O14842) EC50 of the molecule COc1ccc(F)c(-c2c(F)cc(COc3ccc4c(c3)[C@]3(CC4)C[C@H]3C(=O)O)cc2[C@H]2CCCC2(C)C)c1 (single isomer, unassigned) equals < 10 nM

Here is another molecule to look at.
Form: item COc1ccc(F)c(-c2ccc(COc3ccc4c(c3)[C@]3(CC4)C[C@H]3C(=O)O)cc2[C@@H]2CCCC2(C)C)c1 (single isomer, unassigned) ; test system human GPR40 (Homo sapiens, UniProt O14842); EC50: 10 to 100 nM

* * *

Target: human GPR40 (Homo sapiens)
Construct: expressed in transfected cells; host or cells: CHO cells stably transfected with GPR40 and Aequorin
Test: Cell-based aequorin assay
Details: CHO cells stably transfected with GPR40 and aequorin; 0.01% HSA
pEC50: −log10 of the molar value.
Below, each entry is listed with its recorded pEC50.

The reported pEC50 of the compound COc1cc(-c2ccc(COc3cc(F)c4c(c3F)[C@]3(CC4)C[C@H]3C(=O)O)cc2[C@H](OC)C(C)(C)C)c(F)cn1 (single isomer, unassigned) [Example 127] was 6.00 to 7.00

# pEC50 (compound: COc1ccc(F)c(-c2ccc(COc3ccc4c(c3F)[C@@]3(CCC4)C[C@@H]3C(=O)O)cc2[C@H]2CCCC2(C)C)c1 (single isomer, unassigned) [Example 52] ) is < 5.00

Lab note: COc1cc(-c2ccc(COc3cc(F)c4c(c3F)[C@]3(CC4)C[C@H]3C(=O)O)cc2[C@@H]2CCCC2(C)C)c(F)cn1 (single isomer, unassigned) [Example 41] gave pEC50 of 6.00 to 7.00

Input CC1(C)CCC(C)(C)c2cc(COc3ccc4c(c3)[C@]3(CC4)C[C@H]3C(=O)O)ccc21 [Example 104] . Output pEC50: < 5.00

Proceed to the following item.
The compound identified as COc1ccc(F)c(-c2ccc(COc3ccc4c(c3)[C@]3(CCC4)CC[C@@H]3C(=O)O)cc2[C@@H]2CCCC2(C)C)c1 (single isomer, unassigned) [Example 154] registered its pEC50 at 6.00 to 7.00

* * *

Biological target: human GPR40 (Homo sapiens)
Construct: expressed in transfected cells; host or cells: CHO cells stably transfected with GPR40 and Aequorin
Test: Cell-based aequorin assay
Conditions: CHO cells stably transfected with GPR40 and aequorin; 0.01% HSA
pEC50: −log10 of the molar value.
measurement-type: pEC50

Entry under test: COc1ccc(F)c(-c2ccc(COc3ccc4c(c3)[C@]3(CC4)C[C@@H]3C(=O)O)cc2C2=CCCC2(C)C)c1 [Example 3] . Its pEC50 was < 5.00

Lab note: COc1ccc(F)c(-c2ccc(COc3ccc4c(c3)C3(CC4)CCC3C(=O)O)cc2C(OC)C(C)(C)C)c1 (single isomer, unassigned) [Example 149] gave pEC50 of 6.00 to 7.00

Value of pEC50 reported for the compound COc1cc(-c2ccc(COc3ccc4c(c3F)[C@]3(CCC4)C[C@H]3C(=O)O)cc2[C@@H]2CCCC2(C)C)c(F)cn1 [Example 55] is 6.00 to 7.00

pEC50 reported for this compound COc1cccc(-c2ccc(COc3ccc4c(c3)[C@]3(CCC4)C[C@H]3C(=O)O)cc2[C@H](OC)C(C)(C)C)c1F (racemic) [Example 134] : 6.00 to 7.00

Measured pEC50, CO[C@@H](c1cc(COc2ccc3c(c2)[C@]2(CCC3)C[C@H]2C(=O)O)ccc1-c1cccc(Cl)c1)C(C)(C)C (racemic) [Example 137] : 6.00 to 7.00

The measured pEC50 associated with COc1ccc(F)c(-c2ccc(COc3ccc4c(c3)[C@]3(CC4)CC[C@@H]3C(=O)O)cc2C2=CCCC2(C)C)c1 (single isomer, unassigned) [Example 151] reads 6.00 to 7.00

---
Query C=CC(C)(C)[C@@H]1c2cc(COc3ccc4c(c3)[C@]3(CC4)C[C@H]3C(=O)O)ccc2-c2c(F)ccc(OC)c21 (single isomer, unassigned) [Example 23] yields pEC50 of 5.00 to 6.00

Record COc1cc(-c2ccc(COc3ccc4c(c3)C3(CCC4)CCC3C(=O)O)cc2[C@@H]2CCCC2(C)C)c(F)cn1 (single isomer, unassigned) [Example 156] , field pEC50: 6.00 to 7.00

The recorded pEC50 for entry COc1ccc(F)c(-c2ccc(COc3ccc4c(c3)C3(CCC4)CCC3C(=O)O)cc2C(OC)C(C)(C)C)c1 (single isomer, unassigned) [Example 157] equals 5.00 to 6.00

* * *

Target: human GPR40 (Homo sapiens)
Construct: expressed in transfected cells; host or cells: CHO cells stably transfected with GPR40 and Aequorin
Assay: Cell-based aequorin assay
Conditions: CHO cells stably transfected with GPR40 and aequorin; 0.01% HSA
This listing pairs molecules with measured EC50.

Note to self: EC50 recorded for COc1ccc(F)c(-c2ccc(COc3ccc4c(c3)[C@]3(CCC4)CC[C@@H]3C(=O)O)cc2[C@@H](OC)C(C)(C)C)c1 (single isomer, unassigned) was 1000 to 10000 nM

More entries:
EC50 reported for this molecule COc1ccc(F)c(-c2ccc(COc3ccc4c(c3)[C@]3(CC4)CC[C@@H]3C(=O)O)cc2[C@@H]2CCCC2(C)C)c1 (single isomer, unassigned) : 100 to 1000 nM

The molecule listed as COCCOc1ccc(COc2ccc3c(c2)[C@]2(CCC3)C[C@H]2C(=O)O)cc1[C@@H]1CCCC1(C)C (single isomer, unassigned) has a reported EC50 of 1000 to 10000 nM

Kindly note the recorded EC50 for COCC1(c2cc(COc3ccc4c(c3)[C@]3(CC4)C[C@H]3C(=O)O)ccc2-c2cc(OC)ncc2F)CCCC1 , which is 1000 to 10000 nM

COc1ccc(F)c(-c2cc(COc3ccc4c(c3)[C@@]3(CC4)C[C@H]3C(=O)O)ccc2C(C)(C)C)c1 yielded EC50 of > 10000 nM

Record COc1cc(-c2ccc(COc3ccc4c(c3)[C@]3(CCC4)C[C@H]3C(=O)O)cc2[C@@H](OC)C(C)(C)C)c(F)cn1 (single isomer, unassigned) , field EC50: 10 to 100 nM

Record COc1ccc(F)c(-c2ccc(COc3cc(F)c4c(c3F)[C@]3(CC4)C[C@H]3C(=O)O)cc2[C@@H](OC)C(C)(C)C)c1 (single isomer, unassigned) , field EC50: 10 to 100 nM

Query O=C(O)[C@@H]1C[C@]12CCc1ccc(Oc3ccc(C(F)(F)F)c(Br)c3)cc12 yields EC50 of 1000 to 10000 nM

# EC50 of COc1ccc(F)c(-c2ccc(COc3ccc4c(c3)[C@]3(CC4)C[C@H]3C(=O)O)cc2CC(C)(C)C)c1 = 10 to 100 nM

Measured EC50 of CC(C)COc1ccc(COc2ccc3c(c2)[C@]2(CCC3)C[C@H]2C(=O)O)cc1[C@@H]1CCCC1(C)C (single isomer, unassigned) : 1000 to 10000 nM

# molecule C=CC(C)(C)c1cc(COc2ccc3c(c2)[C@]2(CC3)C[C@H]2C(=O)O)ccc1-c1cc(OC)ncc1F ; its EC50 = 1000 to 10000 nM

Given item COc1ccc(Cl)c(-c2ccc(COc3ccc4c(c3F)[C@@]3(CC4)C[C@@H]3C(=O)O)cc2[C@@H]2CCCC2(C)C)n1 (stereo in doubt) , the value recorded as its EC50 is 1000 to 10000 nM

* * *

Target: human GPR40 (Homo sapiens, UniProt O14842)
Construct: expressed in transfected cells; host or cells: CHO cells stably transfected with GPR40 and Aequorin
Assay: Cell-based aequorin assay
Conditions: CHO cells stably transfected with GPR40 and aequorin; 0.01% HSA
// values below are reported EC50

Kindly note the recorded EC50 for COc1ccc(F)c(-c2cc(F)c(COc3ccc4c(c3)[C@]3(CC4)C[C@H]3C(=O)O)cc2[C@H]2CCCC2(C)C)c1 (single isomer, unassigned) , which is 100 to 1000 nM

Just so you know, measured EC50 for COc1ccc(F)c(-c2ccc(COc3ccc4c(c3)[C@]3(CC4)C[C@H]3C(=O)O)cc2C2(OC)CCCC2)c1 came out at 100 to 1000 nM

Consider the record given below.
Lab note: measured EC50 of COc1cc(-c2ccc(COc3ccc4c(c3)[C@]3(CC4)CC[C@@H]3C(=O)O)cc2[C@@H]2CCCC2(C)C)c(F)cn1 (single isomer, unassigned) was 100 to 1000 nM
